Subject of test: Nicotinamide N-methyltransferase (Homo sapiens) (UniProt P40261)
Sequence (P40261 whole entry, looked up): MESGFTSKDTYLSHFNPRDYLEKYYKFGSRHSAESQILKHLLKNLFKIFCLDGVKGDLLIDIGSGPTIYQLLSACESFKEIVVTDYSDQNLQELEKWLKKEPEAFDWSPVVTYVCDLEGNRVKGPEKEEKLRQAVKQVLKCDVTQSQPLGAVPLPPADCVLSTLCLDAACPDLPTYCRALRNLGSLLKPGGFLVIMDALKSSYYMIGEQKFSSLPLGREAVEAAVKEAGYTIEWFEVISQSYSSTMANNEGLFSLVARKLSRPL
Assay comment: Confirmatory Screen for Target Class Profiling of Small Molecule Inhibitors of Methyltransferases (AID 1745852)
Settings: MTase-Glo luminescence, SAH detection, recombinant enzyme; measured here: NNMT max response; stronger effect = lower value
Entries whose activity is below -20% take 1; entries at or above -20% take 0.

Smiles: O=C(Nc1cc2cc[nH]c2cn1)c1ccccc1
Subject of test: Nicotinamide N-methyltransferase (Homo sapiens) (UniProt P40261)
Label class: 1
//
Smiles: CCN(CC)Cc1ccc2cc(COC(=O)Nc3ccc(C(=O)NO)cc3)ccc2c1
Subject of test: Nicotinamide N-methyltransferase (Homo sapiens) (UniProt P40261)
Label class: 0
//
Smiles: c1ccc2c(Oc3nc(Nc4ccc(N5CCOCC5)cc4)c4ncn(C5CCCCC5)c4n3)cccc2c1
Subject of test: Nicotinamide N-methyltransferase (Homo sapiens) (UniProt P40261)
Label class: 1
//
Smiles: Cc1cnc(Nc2ccc(CN3CCOCC3)cc2)nc1Nc1cccc(S(=O)(=O)NC(C)(C)C)c1
Subject of test: Nicotinamide N-methyltransferase (Homo sapiens) (UniProt P40261)
Label class: 1
//
Smiles: c1cc(N[C@@H]2CCNC2)nc(-c2cnc3ccc(-c4cn[nH]c4)cn23)c1
Subject of test: Nicotinamide N-methyltransferase (Homo sapiens) (UniProt P40261)
Label class: 0
//
Smiles: Cc1cnc(Nc2ccc(N3CCN(C)CC3)cc2)nc1Nc1cccc(S(=O)(=O)NC(C)(C)C)c1
Subject of test: Nicotinamide N-methyltransferase (Homo sapiens) (UniProt P40261)
Label class: 0
//
Smiles: N#Cc1c(C2CCNCC2)cc(-c2c(O)cccc2OCC2CC2)nc1N
Subject of test: Nicotinamide N-methyltransferase (Homo sapiens) (UniProt P40261)
Label class: 1

====

Assay comment: Quantitative High-Throughput drug screen in 47 multiple myeloma cell lines against the NCATS MIPE library collection: MM1R_ATCC cell viability assay (AID 1918981); further: nearly all actives have a fitted effect of over 35% in size; further: potency means the concentration at half of the fitted maximal effect
Settings: MM1R multiple myeloma cells, CellTiter-Glo viability, 48 h; series mostly up to 45.8 µM
Results filed as inconclusive are left out. The source made the active and inactive calls. Calls follow the shape of the dose curve; as a rule, active = well fitted cell-killing curve with a large enough effect; inconclusive = small, poorly fitted or top-dose-only effect, or effect the other way; inactive = no such curve, though single readings can be large or run the other way.

Compound: CCCCCCCCc1ccc(CCC(N)(CO)CO)cc1
Potency: 9.35 µM (active)
//
Compound: O=C(Nc1cc2cc[nH]c2cn1)c1ccccc1
Potency: 7.43 µM (active)
//
Compound: COc1cc([C@@H]2c3cc4c(cc3[C@@H](O[C@@H]3O[C@@H]5CO[C@@H](c6cccs6)O[C@@H]5[C@H](O)[C@@H]3O)[C@H]3COC(=O)[C@H]23)OCO4)cc(OC)c1O
Potency: 0.0743 µM (active)
//
Compound: COC[C@H](NC(=O)c1cnc(C)s1)C(=O)N[C@@H](COC)C(=O)N[C@@H](Cc1ccccc1)C(=O)[C@@]1(C)CO1
Potency: 0.0418 µM (active)
//
Compound: Cc1onc(-c2ccccc2)c1C(=O)N[C@@H]1C(=O)N2[C@@H](C(=O)O)C(C)(C)S[C@@H]12
Potency: inactive
//
Compound: CCOC(=O)C=C[C@H](C[C@@H]1CCNC1=O)NC(=O)[C@@H](CC(=O)[C@@H](NC(=O)c1cc(C)on1)C(C)C)Cc1ccc(F)cc1
Potency: inactive
//
Compound: CCOc1cc2c(c(F)c1OCC)C(=N)N(CC(=O)c1cc(N3CCOCC3)c(OC)c(C(C)(C)C)c1)C2
Potency: 20.9 µM (active)
//
Compound: Oc1cc(-c2nc(-c3ccccc3)[nH]c2-c2ccncc2)ccc1Cl
Potency: 14.8 µM (active)
//
Compound: C[C@@]12C(=O)OC(=O)[C@@]1(C)C1CCC2O1
Potency: 2.35 µM (active)
//
Compound: CC(=O)SCC(Cc1ccccc1)C(=O)NCC(=O)OCc1ccccc1 (stereo not drawn)
Potency: 3.72 µM (active)
//
Compound: C=C[C@@H]1CN2CCC1C[C@H]2[C@H](O)c1ccnc2ccc(OC)cc12 (stereo partly drawn)
Potency: inactive
//
Compound: Cc1cc(C(=O)NOCCO)c(Nc2ccc(I)cc2F)n(C)c1=O
Potency: inactive
//
Compound: CC1(C)O[C@@H]2C[C@H]3[C@@H]4CCC5=CC(=O)C=C[C@]5(C)[C@@H]4[C@@H](O)C[C@]3(C)[C@]2(C(=O)CO)O1
Potency: inactive
//
Compound: Cc1ccc([N+](=O)[O-])cc1S(=O)(=O)N(C)N=Cc1cnc2ccc(Br)cn12
Potency: 0.0332 µM (active)
//
Compound: CN(CC(=O)N(Cc1ccc(C2CCCCC2)cc1)c1ccc(C(=O)O)c(O)c1)S(=O)(=O)c1c(F)c(F)c(F)c(F)c1F
Potency: 8.33 µM (active)
//
Compound: O=C(C=CC#Cc1cccc(NS(=O)(=O)c2ccccc2)c1)NO
Potency: 1.48 µM (active)
//
Compound: COC(=O)[C@@H]1CC2=CC(=O)CC[C@]2(C)[C@@]23O[C@@H]2C[C@@]2(C)[C@H](CC[C@@]24CCC(=O)O4)[C@@H]13
Potency: inactive
//
Compound: CN1CCc2c(c3ccccc3n2Cc2ccc(C(=O)NO)cc2)C1
Potency: 16.6 µM (active)

====

Assay comment: qHTS of pediatric cancer cell lines to identify multiple opportunities for drug repurposing: Primary screen for BT-37 cells (AID 1347094);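 further: plate controls were DMSO for no effect and bortezomib for full effect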
Settings: BT-37 viability, CellTiter-Glo luminescence, 48 h; series mostly up to 57.3 µM
Records with an inconclusive call do not appear. The source made the active and inactive calls. Calls follow the shape of the dose curve; as a rule, active = well fitted cell-killing curve with a large enough effect; inconclusive = small, poorly fitted or top-dose-only effect; inactive = flat fitted curve, though single readings scatter.
Value kind: outcome

Smiles: CN[C@H](CC(C)C)C(=O)N[C@H]1C(=O)N[C@@H](CC(N)=O)C(=O)N[C@@H]2C(=O)N[C@H]3C(=O)N[C@H](C(=O)N[C@H](C(=O)O)c4cc(O)cc(O)c4-c4cc3ccc4O)[C@H](O)c3ccc(c(Cl)c3)Oc3cc2cc(c3O[C@@H]2O[C@H](CO)[C@@H](O)[C@H](O)[C@@H]2O[C@H]2C[C@](C)(N)[C@H](O)[C@H](C)O2)Oc2ccc(cc2Cl)[C@H]1O
Value kind: outcome
Readout value: inactive
//
Smiles: Cn1cc(C=CC(=O)c2cccc(F)c2)cc1C=CC(=O)NO
Value kind: outcome
Readout value: inactive

====

Assay comment: qHTS Screen of the MIPE 4.0 Collection Against Ewings Sarcoma (TC32) (AID 1259256); further: nearly all actives have a fitted effect of over 45% in size
Settings: TC32 Ewing sarcoma viability, CellTiter-Glo, 48 h; series mostly up to 45.8 µM
Records with an inconclusive call do not appear. Calls of active or inactive are those of the source. The call rests on the fitted dose curve; in most records, active means well fitted inhibition curve with a large enough effect; inconclusive means small, poorly fitted or top-dose-only effect; inactive means no such curve, though single readings can be large or run the other way.
Outcomes: active, inactive

Compound: O=[N+]([O-])c1cn2c(n1)OC[C@@H](OCc1ccc(OC(F)(F)F)cc1)C2
Label class: active

Compound: Oc1ccc(-c2ccc(-c3cc(Nc4cccc(CNC5CC5)c4)n[nH]3)cc2)c(O)c1
Label class: active

Compound: CCc1c(O)cc(O)c(C(=O)c2ccc(OCCN3CCOCC3)c(OC)c2)c1CC(=O)N(CCOC)CCOC
Label class: active

Compound: COC(=O)[C@@H]1CC2=CC(=O)CC[C@]2(C)[C@@]23O[C@@H]2C[C@@]2(C)[C@H](CC[C@@]24CCC(=O)O4)[C@@H]13
Label class: inactive

Compound: C=CCNC1=C2C[C@@H](C)C[C@H](OC)[C@@H](O)[C@@H](C)C=C(C)[C@H](OC(N)=O)[C@@H](OC)C=CC=C(C)C(=O)NC(=CC1=O)C2=O
Label class: active

Compound: CC1=C(C(=O)Nc2cc3cn[nH]c3cc2F)C(c2ccc(Cl)cc2F)N=C(c2ccnc(Cl)c2)N1 (configuration not stated)
Label class: active

Compound: CNC(=O)c1ccc(Nc2cc(Nc3ccccc3S(=O)(=O)C(C)C)c3cc[nH]c3n2)nc1
Label class: active

Compound: O=C(Nc1cc2cc[nH]c2cn1)c1ccccc1
Label class: active

Compound: COc1ccc(C(C)=O)c(O)c1
Label class: inactive

Compound: CN(CC(=O)N(Cc1ccc(C2CCCCC2)cc1)c1ccc(C(=O)O)c(O)c1)S(=O)(=O)c1c(F)c(F)c(F)c(F)c1F
Label class: active

Compound: C[C@](Cc1c[nH]c2ccccc12)(NC(=O)OC1C2CC3CC(C2)CC1C3)C(=O)NC[C@H](NC(=O)CCC(=O)O)c1ccccc1 (some centres not stated)
Label class: inactive

Compound: c1ccc(CNc2nc(NCc3ccccc3)c3ccccc3n2)cc1
Label class: active

Compound: CN1CCCN(C(=O)c2cccc(-c3ccc(C=C4C(=O)Nc5ccc(Cl)cc54)o3)c2)CC1
Label class: active

Compound: CCN1CCN(C(=O)N[C@H](C(=O)N[C@@H]2C(=O)N3C(C(=O)O)=C(CSc4nnnn4C)CS[C@@H]23)c2ccc(O)cc2)C(=O)C1=O
Label class: inactive

Compound: CC[C@H]1OC(=O)[C@H](C)[C@@H](O[C@H]2C[C@@](C)(OC)[C@@H](O)[C@H](C)O2)[C@H](C)[C@@H](O[C@@H]2O[C@@H](C)C[C@H](N(C)C)[C@@H]2O)[C@](C)(O)C[C@@H](C)C(=O)[C@H](C)[C@@H](O)[C@]1(C)O
Label class: inactive

Compound: Cc1ccc2nc(NCCN)c3ncc(C)n3c2c1
Label class: active

Compound: Cn1cc(-c2ccc3ncc(Cc4ccc5ncccc5c4)n3n2)cn1
Label class: inactive
